Biological target: biotinylated VCB protein (Homo sapiens)
measured quantity: pKd
The scale used: pKd is minus the common logarithm of the concentration in molar units.

// query # value lookup — system biotinylated VCB protein (Homo sapiens), readout pKd, item "Cc1ncsc1-c1ccc(CNC(=O)[C@@H]2C[C@@H](O)CN2C(=O)[C@@H](NC(=O)C2(F)CC2)C(C)(C)C)cc1F"
// result 7.18

====

Target: VCB protein (Homo sapiens)
measured quantity: IC50 (nM)
Report the figure in nM without appending any unit label.

// known answers, use as guide
COc1cc(-c2scnc2C)ccc1CNC(=O)[C@@H]1C[C@@H](O)CN1C(=O)[C@@H](NC(=O)C1(C#N)CC1)C(C)(C)C: 837
Cc1ncsc1-c1ccc(CNC(=O)[C@@H]2C[C@@H](O)CN2C(=O)[C@@H](NC(=O)C2(C#N)CC2)C(C)(C)C)cc1Cl: 1030

// query Fill blank: measured IC50 of the molecule "Cc1ncsc1-c1ccc(CNC(=O)[C@@H]2C[C@@H](O)CN2C(=O)[C@@H](NC(=O)C2(C#N)CC2)C(C)(C)C)cc1F" is ____.
// result 444

// query So what's the measured IC50 for this one? "Cc1cc(-c2scnc2C)c(F)cc1[C@H](C)NC(=O)[C@@H]1C[C@@H](O)CN1C(=O)[C@@H](NC(=O)C1(F)CC1)C(C)(C)C"
// result 220

// query What does the record list as IC50 for "Cc1cc(-c2scnc2C)cc(C)c1CNC(=O)[C@@H]1C[C@@H](O)CN1C(=O)[C@@H](NC(=O)C1(C#N)CC1)C(C)(C)C" ?
// result 21100

// query Entry under review: "Cc1cc(-c2scnc2C)ccc1CNC(=O)[C@@H]1C[C@@H](O)CN1C(=O)[C@@H](NC(=O)C1(F)CC1)C(C)(C)C" . Reported IC50?
// result 426
